Test system: NCI-H23
Experimental details: relative viability (nuclei count vs DMSO), 5 days (fraction); higher = more cells survive
Condition summary: first compound 0.05 µM
# relative viability annotations

Molecule: COc1cc2nccc(Oc3ccc(NC(=O)Nc4cc(C)on4)c(Cl)c3)c2cc1OC [Tivozanib] + Cc1nc(NC(=O)N2CCC[C@H]2C(N)=O)sc1-c1ccnc(C(C)(C)C(F)(F)F)c1 [Alpelisib] (partner 2 µM)
relative viability: 0.615

Molecule: COc1cc2nccc(Oc3ccc(NC(=O)Nc4cc(C)on4)c(Cl)c3)c2cc1OC [Tivozanib] + CC1(C)CCC(c2ccc(Cl)cc2)=C(CN2CCN(c3ccc(C(=O)NS(=O)(=O)c4ccc(N[C@H](CCN5CCOCC5)CSc5ccccc5)c(S(=O)(=O)C(F)(F)F)c4)cc3)CC2)C1 [Navitoclax] (partner 0.5 µM)
relative viability: 0.92

Molecule: Nc1ccn([C@@H]2O[C@H](CO)[C@@H](O)[C@@H]2O)c(=O)n1 [Cytarabine] + CS(=O)(=O)CCNCc1ccc(-c2ccc3ncnc(Nc4ccc(OCc5cccc(F)c5)c(Cl)c4)c3c2)o1 [Lapatinib] (partner 2 µM)
relative viability: 0.734

Molecule: COc1cc2nccc(Oc3ccc(NC(=O)Nc4cc(C)on4)c(Cl)c3)c2cc1OC [Tivozanib] + N=C(N)NC(=N)NCCc1ccccc1 [Phenformin] (partner 250 µM)
relative viability: 0.783

----------
# relative viability annotations
Test system: NCI-H1915
Experimental details: relative viability (nuclei count vs DMSO), 5 days (fraction); higher = more cells survive
Condition summary: first compound 158.11 µM

Compound: O=C(O)CCCCC(CCSCc1ccccc1)SCc1ccccc1 (stereo not drawn) [CPI-613] + CCNC(=O)c1noc(-c2cc(C(C)C)c(O)cc2O)c1-c1ccc(CN2CCOCC2)cc1 [Luminespib] (partner 0.01 µM)
Tested on: NCI-H1915
relative viability: 0.161
//
Compound: O=C(O)CCCCC(CCSCc1ccccc1)SCc1ccccc1 (stereo not drawn) [CPI-613] + Nc1nc2[nH]cc(CCc3ccc(C(=O)N[C@@H](CCC(=O)O)C(=O)O)cc3)c2c(=O)[nH]1 [Pemetrexed] (partner 0.2 µM)
Tested on: NCI-H1915
relative viability: 0.409
//
Compound: O=C(O)CCCCC(CCSCc1ccccc1)SCc1ccccc1 (stereo not drawn) [CPI-613] + CC(=O)Nc1cccc(-n2c(=O)n(C3CC3)c(=O)c3c(Nc4ccc(I)cc4F)n(C)c(=O)c(C)c32)c1 [Trametinib] (partner 0.02 µM)
Tested on: NCI-H1915
relative viability: 0.216

----------
Test system: NCI-H2347
Experimental details: relative viability (nuclei count vs DMSO), 5 days (fraction); higher = more cells survive
Condition summary: first compound 0.000632 µM

Compound: CC(=O)O[C@@]12CO[C@@H]1C[C@H](O)[C@@]1(C)C(=O)[C@H](O)C3=C(C)[C@@H](OC(=O)[C@H](O)[C@@H](NC(=O)OC(C)(C)C)c4ccccc4)C[C@@](O)([C@@H](OC(=O)c4ccccc4)[C@H]21)C3(C)C [Docetaxel] + CS(=O)(=O)N1CCN(Cc2cc3nc(-c4cccc5[nH]ncc45)nc(N4CCOCC4)c3s2)CC1 [Pictilisib] (partner 1 µM)
relative viability: 0.564
--
Compound: CC(=O)O[C@@]12CO[C@@H]1C[C@H](O)[C@@]1(C)C(=O)[C@H](O)C3=C(C)[C@@H](OC(=O)[C@H](O)[C@@H](NC(=O)OC(C)(C)C)c4ccccc4)C[C@@](O)([C@@H](OC(=O)c4ccccc4)[C@H]21)C3(C)C [Docetaxel] + CCNC(=O)c1noc(-c2cc(C(C)C)c(O)cc2O)c1-c1ccc(CN2CCOCC2)cc1 [Luminespib] (partner 0.01 µM)
relative viability: 0.631
--
Compound: CC(=O)O[C@@]12CO[C@@H]1C[C@H](O)[C@@]1(C)C(=O)[C@H](O)C3=C(C)[C@@H](OC(=O)[C@H](O)[C@@H](NC(=O)OC(C)(C)C)c4ccccc4)C[C@@](O)([C@@H](OC(=O)c4ccccc4)[C@H]21)C3(C)C [Docetaxel] + Nc1nc2[nH]cc(CCc3ccc(C(=O)N[C@@H](CCC(=O)O)C(=O)O)cc3)c2c(=O)[nH]1 [Pemetrexed] (partner 0.2 µM)
relative viability: 0.446

----------
# relative viability annotations
Test system: UMC-11
Experimental details: relative viability (nuclei count vs DMSO), 5 days (fraction); higher = more cells survive
Condition summary: first compound 1.265 µM
Result type: relative viability

Compound: Cc1sc2c(c1C)C(c1ccc(Cl)cc1)=N[C@@H](CC(=O)OC(C)(C)C)c1nnc(C)n1-2 [JQ1] + C[C@]1(O)C[C@@H](c2nc(-c3ccc4ccc(-c5ccccc5)nc4c3)c3c(N)nccn32)C1 [Linsitinib] (partner 1 µM)
Result type: relative viability
Reading: 0.237
//
Compound: Cc1sc2c(c1C)C(c1ccc(Cl)cc1)=N[C@@H](CC(=O)OC(C)(C)C)c1nnc(C)n1-2 [JQ1] + CS(=O)(=O)CCNCc1ccc(-c2ccc3ncnc(Nc4ccc(OCc5cccc(F)c5)c(Cl)c4)c3c2)o1 [Lapatinib] (partner 2 µM)
Result type: relative viability
Reading: 0.255
//
Compound: Cc1sc2c(c1C)C(c1ccc(Cl)cc1)=N[C@@H](CC(=O)OC(C)(C)C)c1nnc(C)n1-2 [JQ1] + Cc1nc(NC(=O)N2CCC[C@H]2C(N)=O)sc1-c1ccnc(C(C)(C)C(F)(F)F)c1 [Alpelisib] (partner 2 µM)
Result type: relative viability
Reading: 0.197

----------
System: HCC-827
Experimental details: relative viability (nuclei count vs DMSO), 5 days (fraction); higher = more cells survive
Condition summary: first compound 0.02 µM
Result type: relative viability

Compound: CC(=O)O[C@@]12CO[C@@H]1C[C@H](O)[C@@]1(C)C(=O)[C@H](O)C3=C(C)[C@@H](OC(=O)[C@H](O)[C@@H](NC(=O)OC(C)(C)C)c4ccccc4)C[C@@](O)([C@@H](OC(=O)c4ccccc4)[C@H]21)C3(C)C [Docetaxel] + CC1(C)CCC(c2ccc(Cl)cc2)=C(CN2CCN(c3ccc(C(=O)NS(=O)(=O)c4ccc(N[C@H](CCN5CCOCC5)CSc5ccccc5)c(S(=O)(=O)C(F)(F)F)c4)cc3)CC2)C1 [Navitoclax] (partner 0.5 µM)
Reading: 0.252

----------
# relative viability annotations
Test system: RERF-LC-KJ
Experimental details: relative viability (nuclei count vs DMSO), 5 days (fraction); higher = more cells survive
Condition summary: first compound 0.02 µM

Molecule: CC(=O)O[C@@]12CO[C@@H]1C[C@H](O)[C@@]1(C)C(=O)[C@H](O)C3=C(C)[C@@H](OC(=O)[C@H](O)[C@@H](NC(=O)OC(C)(C)C)c4ccccc4)C[C@@](O)([C@@H](OC(=O)c4ccccc4)[C@H]21)C3(C)C [Docetaxel] + Nc1nc2[nH]cc(CCc3ccc(C(=O)N[C@@H](CCC(=O)O)C(=O)O)cc3)c2c(=O)[nH]1 [Pemetrexed] (partner 0.2 µM)
relative viability: 0.157

Molecule: CC(=O)O[C@@]12CO[C@@H]1C[C@H](O)[C@@]1(C)C(=O)[C@H](O)C3=C(C)[C@@H](OC(=O)[C@H](O)[C@@H](NC(=O)OC(C)(C)C)c4ccccc4)C[C@@](O)([C@@H](OC(=O)c4ccccc4)[C@H]21)C3(C)C [Docetaxel] + C[C@]1(O)C[C@@H](c2nc(-c3ccc4ccc(-c5ccccc5)nc4c3)c3c(N)nccn32)C1 [Linsitinib] (partner 1 µM)
relative viability: 0.145

----------
Test system: NCI-H1944
Experimental details: relative viability (nuclei count vs DMSO), 5 days (fraction); higher = more cells survive
Condition summary: first compound 0.02 µM

Compound: CC(=O)O[C@@]12CO[C@@H]1C[C@H](O)[C@@]1(C)C(=O)[C@H](O)C3=C(C)[C@@H](OC(=O)[C@H](O)[C@@H](NC(=O)OC(C)(C)C)c4ccccc4)C[C@@](O)([C@@H](OC(=O)c4ccccc4)[C@H]21)C3(C)C [Docetaxel] + NC(=O)Nc1cc(-c2cccc(F)c2)sc1C(=O)N[C@H]1CCCNC1 [AZD7762] (partner 0.2 µM)
relative viability: 0.102
//
Compound: CC(=O)O[C@@]12CO[C@@H]1C[C@H](O)[C@@]1(C)C(=O)[C@H](O)C3=C(C)[C@@H](OC(=O)[C@H](O)[C@@H](NC(=O)OC(C)(C)C)c4ccccc4)C[C@@](O)([C@@H](OC(=O)c4ccccc4)[C@H]21)C3(C)C [Docetaxel] + O=C(c1cc(Cc2n[nH]c(=O)c3ccccc23)ccc1F)N1CCN(C(=O)C2CC2)CC1 [Olaparib] (partner 8 µM)
relative viability: 0.118
//
Compound: CC(=O)O[C@@]12CO[C@@H]1C[C@H](O)[C@@]1(C)C(=O)[C@H](O)C3=C(C)[C@@H](OC(=O)[C@H](O)[C@@H](NC(=O)OC(C)(C)C)c4ccccc4)C[C@@](O)([C@@H](OC(=O)c4ccccc4)[C@H]21)C3(C)C [Docetaxel] + CC1(C)CCC(c2ccc(Cl)cc2)=C(CN2CCN(c3ccc(C(=O)NS(=O)(=O)c4ccc(N[C@H](CCN5CCOCC5)CSc5ccccc5)c(S(=O)(=O)C(F)(F)F)c4)cc3)CC2)C1 [Navitoclax] (partner 0.5 µM)
relative viability: 0.155
